- System: BT-549 breast
- measurement.notes: NCI tumour cell line growth inhibition, 48 h; in the data active = GI50 below about 0.43 µM; inactive = the rest
Classes used: TRUE for active, FALSE for inactive

compound	class.label
NC(=O)C(Br)CBr (centres undefined)	FALSE
COc1cc2c(cc1OCCCOC1=C=C=C(c3ccc4c(c3)c3cc(-c5ccc(OCCCOc6cc7c(cc6OC)C(=O)N6CCC[C@H]6C=N7)cc5)ccc3n4S(=O)(=O)c3ccc(C)cc3)C=C1)N=C[C@@H]1CCCN1C2=O	FALSE
O=CN1N=C(c2ccc(Nc3ccnc4cc(Cl)ccc34)cc2)CC1c1ccccc1 (centres undefined)	FALSE
C[C@@H]1COCCN1c1nc(-c2cnc(N)cc2C(F)F)nc(N2[C@H](C)COC[C@@H]2C)n1	TRUE
COc1cc(C(=O)/C=C/c2c(-c3ccc(F)cc3)nc3sc(C)cn23)cc(OC)c1OC	FALSE
Fc1ccc(C2CC(c3cccc(Nc4ccncc4)c3)=NN2c2cc(Cl)cc(Cl)c2)cc1 (centres undefined)	FALSE
COc1ccc(C(O)c2cc3c(N)c(C(=O)Nc4cccc(Cl)c4C)sc3nc2C)cc1 (centres undefined)	FALSE
COc1cc([C@@H]2c3cc4c(cc3C(Br)[C@H]3COC(=O)[C@H]23)OCO4)cc(OC)c1OC (some centres undefined)	TRUE
O=c1[nH]cnc2c1nnn2C1OC(CO)C(O)C1O (centres undefined)	FALSE
CC(=N\O)/C(C)=N/O.CC(=N\O)/C(C)=N/O.CC(=N\O)/C(C)=N/O.CC(=N\O)/C(C)=N/O.[Cu].[Cu]	FALSE
NS(=O)(=O)c1ccc(C2C3=C(CCCC3=O)OC3=C2C(=O)c2ccccc2C3=O)cc1 (centres undefined)	FALSE
Nc1ccccc1NC(=O)CCCCCCC(=O)Nc1ccc2c(c1)/C(=C/c1ccc[nH]1)C(=O)N2	TRUE
O=S1(=O)N(Cc2ccccc2)[C@@H](Cc2ccccc2)C2O[C@H]2[C@H](Cc2ccccc2)N1Cc1ccccc1 (some centres undefined)	FALSE
Nc1ccc(N=Nc2ccccc2)c(N)n1	FALSE
CCOC(=O)c1cc2c(n1Cc1cc(OC)cc(OC)c1)-c1oncc1CCC2	FALSE
O=C(Nc1ccc(Cl)cc1)c1cc2c(cc1O)[nH]c1ccccc12	FALSE
CN(C)/C=C/c1nnnn1-c1ccc(Cl)cc1	FALSE
CCCCCCOc1ccc(/C=N/NC(N)=S)cc1	FALSE
C=C1C(=O)O[C@H]2[C@H]1CC/C(CNS(=O)(=O)c1ccc3ccccc3c1)=C\CC[C@@]1(C)O[C@@H]21	FALSE

---

- System: SN12C renal
- measurement.notes: NCI tumour cell line growth inhibition, 48 h; in the data active means GI50 below about 0.43 µM; inactive means the rest
Classes used: Y for active, N for inactive

smiles.data	class.label
Cc1nc2cncc(C#Cc3cncc(C(=O)Nc4ccc(CN5CCN(C)CC5)c(C(F)(F)F)c4)c3)c2nc1C	Y
Cc1cccc2nc3cccc(C(=O)NCCC[N+](C)(CCCNC(=O)c4cccc5nc6cccc(C)c6nc45)Cc4c([N+](=O)[O-])ncn4C)c3nc12	N
CNc1nc(C)c(-c2nc(Nc3cccc(S(N)(=O)=O)c3)ncc2F)s1	Y
CCOC(=O)c1c2c(n3ccc(NC(=O)OC(C)(C)C)cc13)C(=O)c1ncccc1C2=O	Y

---

- Test system: HS 578T breast
- measurement.notes: NCI tumour cell line growth inhibition, 48 h; in the data active = GI50 below about 0.43 µM; inactive = the rest
Classes used: active, inactive

compound	class.label
CCc1ccc(-c2ccc(=O)n(-c3ccc(S(N)(=O)=O)cc3)n2)cc1	inactive
CCCCCCCCCCCCCC[P+](CCCCCC)(CCCCCC)CCCCCC	active
NC(=O)C(Br)CBr (configuration not stated)	inactive
CCOC(=O)c1cc2c(n1Cc1cc(OC)cc(OC)c1)-c1oncc1CCC2	active
CCN(CC)CCOc1ccc(Nc2ncc3cc(-c4c(Cl)cccc4Cl)c(=O)n(CCOC)c3n2)cc1	active
C=C1C(=O)O[C@H]2[C@H]1CC/C(CNC(=O)/C=C/c1cccc(OC)c1)=C\CC[C@@]1(C)O[C@@H]21	inactive
O=CN1N=C(c2ccc(Nc3ccnc4cc(Cl)ccc34)cc2)CC1c1ccccc1 (configuration not stated)	inactive

---

- Tested on: SK-MEL-5 melanoma
- measurement.notes: NCI tumour cell line growth inhibition, 48 h
Reported log10(TGI) values for a set of molecules
measured.metric: log10(TGI) (log10 of the value in µM)

smiles.data	measured.metric	recorded.result
CC/C=C\C/C=C\C[C@H](O)C/C=C1/C(=O)C=C[C@H]1C/C=C\CCC(=O)OC	log10(TGI)	0.79
CCOC(=O)c1cc2c(n1Cc1cc(OC)cc(OC)c1)-c1oncc1CCC2	log10(TGI)	0.79
Cc1nccn1S(=O)(=O)c1ccc(Br)cc1Br	log10(TGI)	1.64
COc1cc(C(=O)/C=C/c2c(-c3ccc(F)cc3)nc3sc(C)cn23)cc(OC)c1OC	log10(TGI)	0.30
C[N+](C)([O-])CCCNc1c2ccccc2nc2cccc([N+](=O)[O-])c12	log10(TGI)	-0.49
C=C(CC(=O)Nc1ccc(C(=O)OC)o1)C(=O)OC	log10(TGI)	1.63

---

- Test system: LOX IMVI melanoma
- measurement.notes: NCI tumour cell line growth inhibition, 48 h

compound	tested.on	bound.sign	TGI [µM]
CNC(=O)c1c(NC(=O)c2cccc(C(F)(F)F)c2)sc2c1CCC(=O)C2	LOX IMVI melanoma	=	1.66
CC1(C)CN(c2ccccc2)C(=O)C1OC(=O)[C@@]1(C)C[C@@H]2C=C[C@H]1C2 (some centres not stated)	LOX IMVI melanoma	=	40.3
O=c1c2ccccc2n2nnc3ccc(NCCCNCCNCCCNc4ccc5nnn6c7ccccc7c(=O)c4c56)c1c32	LOX IMVI melanoma	=	24
O=C1CCC2(CC1CCSc1ccccc1)OCCO2 (configuration not stated)	LOX IMVI melanoma	>	100
O=S(=O)([O-])[O-].[Cl-].[NH2-].[NH2-].[NH2-].[NH2-].[Ru+3].c1ccc(-c2cccnc2)cc1	LOX IMVI melanoma	>	100
CC1(C)[C@@H](Cn2cnc3c(=O)[nH]c(N)nc32)CC[C@@]1(C)CO	LOX IMVI melanoma	>	100
Nc1ccc(-c2nc3cc(F)ccc3s2)cc1I	LOX IMVI melanoma	>	100

---

- Test system: HT29 colon
- measurement.notes: NCI tumour cell line growth inhibition, 48 h; in the data active means GI50 below about 0.43 µM; inactive means the rest
Classes used: active, inactive

smiles.data	tested.on	class.label
O=C(Cn1c(=O)c(-c2ccccc2)nc2ccccc21)c1cccnc1	HT29 colon	inactive
CNc1nc(C)c(-c2nc(Nc3cccc(S(N)(=O)=O)c3)ncc2F)s1	HT29 colon	active
C=C1C(=O)O[C@H]2[C@H]1CC/C(CNC(=O)/C=C/c1cccc(OC)c1)=C\CC[C@@]1(C)O[C@@H]21	HT29 colon	inactive
C[C@@H]1COCCN1c1nc(-c2cnc(N)cc2C(F)F)nc(N2[C@H](C)COC[C@@H]2C)n1	HT29 colon	active
CCN(CC)c1ccc(N=C2C=C(C(=O)Nc3ccc(S(C)(=O)=O)cc3)C(=O)c3ccccc32)c(C)c1	HT29 colon	inactive

---

Reported TGI values for a set of compounds
- Test system: UACC-257 melanoma
- measurement.notes: NCI tumour cell line growth inhibition, 48 h

compound	TGI
N#Cc1c(N2CCCC2)ncn(Cc2ccccc2)c1=S	> 100 µM
COC(=O)/C=C\C(C#N)(C#N)N=Cc1ccc(C)s1	7.71 µM
Cc1ccc(S(=O)(=O)NC(=O)NCCC(=O)O)cc1	> 100 µM
COc1ccc2c(c1)nc1n2C(N)=Nc2ccccc2S1	> 100 µM
O=C1c2ccccc2-c2c1c1ccc([N+](=O)[O-])cc1c(=O)n2CCNCCCNCCn1c2c(c3ccc([N+](=O)[O-])cc3c1=O)C(=O)c1ccccc1-2	25.1 µM
O=c1[nH]c2cc3cccnc3c(Cl)c2nc1C(F)(F)F	> 100 µM
CC(C)[C@H]1NC(=O)[C@H]2N=C(O[C@@H]2C)[C@@H]2CCCN2C(=O)[C@H](Cc2ccccc2)NC(=O)[C@@H]2CSC(=N2)[C@@H](Cc2ccccc2)NC(=O)[C@@H]2CSC1=N2	> 100 µM
Nc1ccccc1NC(=O)CCCCCCC(=O)Nc1ccc2c(c1)/C(=C/c1ccc[nH]1)C(=O)N2	> 100 µM
CN(C)CCOC(=O)c1ccc(N)cc1	54 µM
Cc1ccc2c[c]1[Hg][CH2]COS2(=O)=O	29.9 µM
CCCC(CC)c1c(O)c(O)c(C(CC)CCC)c(C(CC)CCC)c1C(CC)CCC (stereo unspecified)	> 10 µM
Cc1cc(Nc2ccc(N=Nc3ccc(O)c4ncccc34)cc2)nc(C)n1	43.8 µM
O=C1CCC2(CC1CCSc1ccccc1)OCCO2 (stereo unspecified)	> 100 µM
CCOC(=O)c1c2c(n3ccc(NC(=O)OC(C)(C)C)cc13)C(=O)c1ncccc1C2=O	0.919 µM
O=c1[nH]c(=O)n(COCc2ccccc2)c2ccc(Br)cc12	> 100 µM
CCON=C1C(C)(C)C(C)(C)C(C)(C)C1(C)C	> 100 µM
CC1(C)[C@@H](Cn2cnc3c(=O)[nH]c(N)nc32)CC[C@@]1(C)CO	> 100 µM
CN(C)C(=S)NN=C(c1ccccn1)c1ccccn1	2.51 µM
O=c1[nH]c(-c2ccccc2)nc2ccc(Cl)cc12	> 100 µM
CCc1ccc(-c2ccc(=O)n(-c3ccc(S(N)(=O)=O)cc3)n2)cc1	> 100 µM
COc1ccc(Nc2ncccc2/C=C/C(=O)c2cc(OC)c(OC)c(OC)c2)cc1	2.92 µM
